- systemTested: JAK2 (Homo sapiens (Human))
- Sequence (O60674 whole entry): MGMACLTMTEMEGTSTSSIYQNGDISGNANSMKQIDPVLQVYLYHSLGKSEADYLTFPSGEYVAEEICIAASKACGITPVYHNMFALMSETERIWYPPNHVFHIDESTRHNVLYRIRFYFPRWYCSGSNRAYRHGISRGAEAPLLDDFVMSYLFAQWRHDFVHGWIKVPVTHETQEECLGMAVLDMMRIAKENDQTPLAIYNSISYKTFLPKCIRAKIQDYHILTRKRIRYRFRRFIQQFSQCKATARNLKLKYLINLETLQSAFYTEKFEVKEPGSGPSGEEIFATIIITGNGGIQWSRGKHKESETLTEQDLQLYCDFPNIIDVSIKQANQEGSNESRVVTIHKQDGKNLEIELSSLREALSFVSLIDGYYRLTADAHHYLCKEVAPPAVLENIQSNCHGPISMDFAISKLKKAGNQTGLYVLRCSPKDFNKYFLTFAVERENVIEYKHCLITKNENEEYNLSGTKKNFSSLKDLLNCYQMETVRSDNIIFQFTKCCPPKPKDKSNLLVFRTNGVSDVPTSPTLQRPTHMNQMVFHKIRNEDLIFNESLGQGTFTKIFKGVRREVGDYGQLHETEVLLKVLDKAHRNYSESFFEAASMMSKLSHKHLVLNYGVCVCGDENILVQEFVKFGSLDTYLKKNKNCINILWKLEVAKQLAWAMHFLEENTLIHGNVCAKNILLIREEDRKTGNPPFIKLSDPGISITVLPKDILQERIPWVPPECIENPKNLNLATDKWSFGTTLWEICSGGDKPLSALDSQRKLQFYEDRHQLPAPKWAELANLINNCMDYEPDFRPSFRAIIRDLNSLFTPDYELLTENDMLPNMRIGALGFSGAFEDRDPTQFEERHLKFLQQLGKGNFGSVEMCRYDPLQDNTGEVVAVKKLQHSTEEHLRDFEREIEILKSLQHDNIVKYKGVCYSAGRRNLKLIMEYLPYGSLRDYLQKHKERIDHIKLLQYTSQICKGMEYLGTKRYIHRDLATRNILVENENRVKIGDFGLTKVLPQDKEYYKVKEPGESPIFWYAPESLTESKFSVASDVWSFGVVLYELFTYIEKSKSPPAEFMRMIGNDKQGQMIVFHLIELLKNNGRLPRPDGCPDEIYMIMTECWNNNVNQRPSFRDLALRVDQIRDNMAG
- assaySummary: HTRF kinase assay, JAK2
- Assay type: biochemical
- conditionLabel: Table 6
- Text: A kinase assay with HTRF was used to observe JAK activity and calculate the IC50s of compounds disclosed herein. HTRF is an enzymatic assay used to determine the amount of phosphorylated peptide. FRET (Fluorescence Resonance Energy Transfer) is based on the transfer of energy between two fluorophores—a donor and an acceptor—when in close proximity. […] Equipment Required • 1. […] Microplate reader (Pherastar)] […]
Task for the reader: assign each of the following molecules its reported pIC50.
Scale explanation: pIC50 corresponds to minus log10 of a concentration expressed in moles per litre.

Any idea what pIC50 came out for `CN(C)C1CCN(c2ccc(Nc3ncc4scc(-c5ccc(F)c(NS(=O)(=O)C6(C)CC6)c5)c4n3)cc2F)CC1` on JAK2 (Homo sapiens (Human))?
7.96

Given the entry Cc1cnc(Nc2ccc(N3CCN(C)CC3)cc2)nc1Nc1cccc(NS(=O)(=O)C(C)(C)C)c1 [drawing 114] , what pIC50 was observed with JAK2 (Homo sapiens (Human))?
7.92

What is its pIC50 for JAK2 (Homo sapiens (Human))? Entry: CN1CCN2c3ccc(Nc4ncc5scc(-c6cccc(NS(=O)(=O)C(C)(C)C)c6)c5n4)cc3CC2C1 (centres unmarked)
8.70

Form entry - test system: JAK2 (Homo sapiens (Human)); read-out: pIC50; molecule: `CN1CCN(C(=O)Cc2ccc(Nc3ncc4ccn(-c5ccc(F)c(NS(=O)(=O)C(C)(C)C)c5)c4n3)cc2)CC1`
6.62

Record lookup: for JAK2 (Homo sapiens (Human)), what pIC50 belongs to Cc1cnc(Nc2ccc(N3CCN(C)CC3)cc2)nc1Nc1cccc(NS(=O)(=O)C(C)(C)C)c1 [drawing 384] ?
8.00

Notebook entry, JAK2 (Homo sapiens (Human)) assay: pIC50 of `Cc1ccc(-n2ccc3cnc(Nc4ccc(N5CCN(C)CC5)cc4)nc32)cc1NS(=O)(=O)C(C)(C)C` = ?
6.64

Hi! What's the reported pIC50 for CN1CCN(c2ccc(Nc3ncc4ccn(-c5ccc(CNS(=O)(=O)C(C)(C)C)cc5)c4n3)cc2)CC1 [drawing 378] on JAK2 (Homo sapiens (Human))?
9.74

I'm curious: which pIC50 was measured for Cc1cnc(Nc2ccc(N3CCN(C)CC3)cc2)nc1Nc1cccc(NS(=O)(=O)C(C)(C)C)c1 [drawing 226] tested on JAK2 (Homo sapiens (Human))?
8.15

----------
For reference, IC50 measured on UniProt:P52333:
Your answer is read as nM, so omit the unit and give the number.

Observed IC50 on UniProt:P52333 for CN1CCN(c2ccc(Nc3ncc4ccn(-c5cccc(NS(=O)(=O)C6CC6)c5)c4n3)cc2)CC1 [drawing 278] , please.
Sequence (P52333 whole entry): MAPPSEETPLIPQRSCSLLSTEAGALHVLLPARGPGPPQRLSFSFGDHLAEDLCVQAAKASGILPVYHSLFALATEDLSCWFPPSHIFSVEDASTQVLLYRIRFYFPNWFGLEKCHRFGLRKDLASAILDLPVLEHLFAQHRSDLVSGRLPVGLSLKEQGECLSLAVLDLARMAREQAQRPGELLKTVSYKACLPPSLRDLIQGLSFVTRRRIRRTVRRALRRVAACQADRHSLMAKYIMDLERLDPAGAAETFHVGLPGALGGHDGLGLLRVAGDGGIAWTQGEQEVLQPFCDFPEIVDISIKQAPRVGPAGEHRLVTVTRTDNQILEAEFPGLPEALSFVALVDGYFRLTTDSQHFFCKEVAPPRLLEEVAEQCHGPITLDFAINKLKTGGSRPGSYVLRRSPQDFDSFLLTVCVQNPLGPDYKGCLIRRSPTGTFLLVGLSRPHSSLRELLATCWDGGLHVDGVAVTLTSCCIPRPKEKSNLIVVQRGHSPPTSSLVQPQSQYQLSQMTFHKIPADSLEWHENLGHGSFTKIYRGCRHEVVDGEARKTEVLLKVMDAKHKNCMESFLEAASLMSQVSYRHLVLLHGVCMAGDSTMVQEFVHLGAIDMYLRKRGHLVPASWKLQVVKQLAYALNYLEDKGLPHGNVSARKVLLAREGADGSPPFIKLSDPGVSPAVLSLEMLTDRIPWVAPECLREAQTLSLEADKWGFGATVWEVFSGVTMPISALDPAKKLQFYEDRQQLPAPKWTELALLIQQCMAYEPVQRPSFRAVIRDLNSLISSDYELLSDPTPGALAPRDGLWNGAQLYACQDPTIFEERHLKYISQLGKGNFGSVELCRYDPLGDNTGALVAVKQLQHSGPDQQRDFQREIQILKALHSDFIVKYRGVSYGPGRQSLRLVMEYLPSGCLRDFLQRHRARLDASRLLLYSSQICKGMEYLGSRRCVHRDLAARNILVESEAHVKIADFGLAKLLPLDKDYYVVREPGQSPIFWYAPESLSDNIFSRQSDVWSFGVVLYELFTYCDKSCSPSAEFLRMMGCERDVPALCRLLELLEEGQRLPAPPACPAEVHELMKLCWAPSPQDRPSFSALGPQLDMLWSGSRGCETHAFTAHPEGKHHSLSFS
69

Record lookup: for UniProt:P52333, what IC50 belongs to CN(C)C1CCN(c2ccc(Nc3ncc4ccn(-c5ccc(F)c(NS(=O)(=O)C(C)(C)C)c5)c4n3)cc2F)CC1 [drawing 366] ?
193

Hi! What's the reported IC50 for CN1CCN(c2ccc(Nc3ncc4ccn(-c5cccc(NS(=O)(=O)C6CC6)c5)c4n3)cc2)CC1 [drawing 297] on UniProt:P52333?
31

Param readout = IC50; param system = UniProt:P52333; param query = CC(C)(C)S(=O)(=O)Nc1cccc(-n2ccc3cnc(Nc4ccc(C(=O)N5CCNCC5)c(F)c4)nc32)c1 [drawing 463] ; response: value
334

Find the measured IC50: item CC(C)(C)S(=O)(=O)Nc1cc(-n2ccc3cnc(Nc4cc(F)c5c(c4)CC4CNCCN54)nc32)ccc1F (centres unmarked) [drawing 443] , target or system UniProt:P52333.
206

Record `CN1CCC(NC(=O)c2ccc(Nc3ncc4ccn(-c5cccc(NS(=O)(=O)C(C)(C)C)c5)c4n3)cc2F)CC1` : what is its IC50 with UniProt:P52333?
103

Field: IC50 (UniProt:P52333). Entry: CNC1CCN(c2ccc(Nc3ncc4ccn(-c5ccc(F)c(NS(=O)(=O)C(C)(C)C)c5)c4n3)cc2F)CC1 [drawing 456]
173

Short answer please: IC50, UniProt:P52333, entry CC(C)(C)S(=O)(=O)Nc1cccc(-n2ccc3cnc(Nc4ccc(C(=O)N5CCNCC5)c(F)c4)nc32)c1 [drawing 462]
403
